- target: δ-opioid receptor (DOR) (Homo sapiens, UniProt P41143)
- Sequence (P41143 whole entry): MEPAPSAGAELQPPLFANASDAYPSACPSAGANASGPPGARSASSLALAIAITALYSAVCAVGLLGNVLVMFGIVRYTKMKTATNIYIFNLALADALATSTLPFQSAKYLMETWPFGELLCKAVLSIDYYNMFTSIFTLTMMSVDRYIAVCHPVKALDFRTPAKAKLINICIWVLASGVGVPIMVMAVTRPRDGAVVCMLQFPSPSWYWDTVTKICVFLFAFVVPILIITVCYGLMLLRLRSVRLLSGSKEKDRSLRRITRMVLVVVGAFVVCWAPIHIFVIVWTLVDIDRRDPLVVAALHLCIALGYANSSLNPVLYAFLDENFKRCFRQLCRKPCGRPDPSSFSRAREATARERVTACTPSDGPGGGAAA
- assay notes: DOR agonist cAMP assay (HitHunter cAMP, forskolin-stimulated)
pEC50: −log10 of the molar value. Square brackets hold non-standard residues; d marks the D form. Peptide text beside a SMILES is read from it. Phe(2,6-Me2,4-CONH2) = Cc1cc(C(N)=O)cc(C)c1C[C@H](N)C(=O)O; β3hF = N[C@H](CC(=O)O)Cc1ccccc1; Sar = CNCC(=O)O
Would you kindly list pEC50 for each of these compounds?

Worked cases, pEC50 given:
compound: Cc1cc(O)cc(C)c1C[C@H](N)C(=O)N[C@H](C)C(=O)NCC(=O)N[C@H](CC(=O)N(CC(N)=O)C1CCCCC1)Cc1ccccc1
target: δ-opioid receptor (DOR) (Homo sapiens, UniProt P41143)
pEC50: > 9.00

compound: Cc1cc(C(N)=O)cc(C)c1C[C@H](N)C(=O)N[C@H](CC(=O)O)C(=O)NCC(=O)N[C@H](CC(=O)N(C)CC(N)=O)Cc1ccccc1
target: δ-opioid receptor (DOR) (Homo sapiens, UniProt P41143)
pEC50: > 9.00

compound: Cc1cc(C(N)=O)cc(C)c1C[C@H](N)C(=O)NCC(=O)NCC(=O)N[C@H](CC(=O)N(C)CC(N)=O)Cc1ccccc1 [compound 74] (H-[Phe(2,6-Me2,4-CONH2)]GG[β3hF][Sar]-NH2)
target: δ-opioid receptor (DOR) (Homo sapiens, UniProt P41143)
pEC50: > 9.00

compound: CC[C@H](C)[C@@H](C(=O)O)N(C)C(=O)C[C@H](Cc1ccccc1)NC(=O)CNC(=O)[C@@H](CC(=O)O)NC(=O)[C@@H](N)Cc1c(C)cc(O)cc1C
target: δ-opioid receptor (DOR) (Homo sapiens, UniProt P41143)
pEC50: > 9.00

compound: Cc1cc(O)cc(C)c1C[C@H](N)C(=O)N[C@H](C)C(=O)NCC(=O)N[C@H](CC(=O)NCC(N)=O)Cc1ccccc1
target: δ-opioid receptor (DOR) (Homo sapiens, UniProt P41143)
pEC50: > 9.00

compound: C[C@@H](NC(=O)[C@@H](N)Cc1ccc(C(N)=O)cc1)C(=O)NCC(=O)N[C@H](CC(=O)N(C)CC(N)=O)Cc1ccccc1
target: δ-opioid receptor (DOR) (Homo sapiens, UniProt P41143)
pEC50: 8.00 to 9.00

compound: CCCC[C@@H](C(=O)O)N(C)C(=O)C[C@H](Cc1ccc(O)cc1)NC(=O)CNC(=O)[C@@H](C)NC(=O)[C@@H](N)Cc1c(C)cc(C(N)=O)cc1C
target: δ-opioid receptor (DOR) (Homo sapiens, UniProt P41143)
pEC50: > 9.00

compound: Cc1cc(C(N)=O)cc(C)c1C[C@H](N)C(=O)N[C@@H](C)C(=O)NCC(=O)N[C@H](CC(=O)N(C)CC(=O)O)Cc1ccccc1
target: δ-opioid receptor (DOR) (Homo sapiens, UniProt P41143)
pEC50: 6.70 to 7.30

Please give pEC50 for each item listed below.
1. CC(=O)Nc1ccc(C[C@H](N)C(=O)N[C@H](C)C(=O)NCC(=O)N[C@H](CC(=O)N(C)CC(N)=O)Cc2ccccc2)cc1
2. CCCC[C@@H](C(=O)O)N(C)C(=O)C[C@H](Cc1cccc(Cl)c1)NC(=O)CNC(=O)[C@@H](C)NC(=O)[C@@H](N)Cc1c(C)cc(O)cc1C
3. Cc1cc(O)cc(C)c1C[C@H](N)C(=O)N[C@H](CC(=O)O)C(=O)NCC(=O)N[C@H](CC(=O)N(C)[C@@H](C)C(=O)O)Cc1ccccc1

["6.70 to 7.30", "> 9.00", "> 9.00"]
